- studyTarget: TrkA (Homo sapiens)
- Sequence (P04629 33-796): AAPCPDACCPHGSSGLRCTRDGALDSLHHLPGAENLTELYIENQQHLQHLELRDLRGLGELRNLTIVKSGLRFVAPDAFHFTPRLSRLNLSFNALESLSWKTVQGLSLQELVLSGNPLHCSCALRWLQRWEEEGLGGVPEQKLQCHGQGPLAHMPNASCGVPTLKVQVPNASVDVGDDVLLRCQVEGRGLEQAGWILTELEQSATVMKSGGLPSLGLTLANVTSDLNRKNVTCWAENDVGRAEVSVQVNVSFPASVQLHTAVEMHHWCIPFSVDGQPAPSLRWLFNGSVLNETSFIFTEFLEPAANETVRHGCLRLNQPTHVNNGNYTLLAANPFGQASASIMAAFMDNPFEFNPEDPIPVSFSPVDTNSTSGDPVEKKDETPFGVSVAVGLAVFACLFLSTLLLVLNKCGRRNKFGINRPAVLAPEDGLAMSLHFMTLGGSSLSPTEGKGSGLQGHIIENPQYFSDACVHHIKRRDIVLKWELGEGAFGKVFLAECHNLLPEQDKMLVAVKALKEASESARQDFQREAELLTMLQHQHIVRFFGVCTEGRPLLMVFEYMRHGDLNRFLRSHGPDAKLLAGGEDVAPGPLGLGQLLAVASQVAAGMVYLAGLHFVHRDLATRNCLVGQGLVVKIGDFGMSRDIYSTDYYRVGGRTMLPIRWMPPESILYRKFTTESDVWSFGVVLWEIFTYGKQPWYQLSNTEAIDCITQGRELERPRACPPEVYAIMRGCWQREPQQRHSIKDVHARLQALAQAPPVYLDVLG
- testDescription: cell-based Enzyme Fragment Complementation (EFC) assay, U2OS cells over-expressing TrkA
- measurementConditions: compound pre-mixed with ligand (NGF), final ligand concentration 10 ng/mL, 3 hours at room temperature, read-out: TrkA potency expressed as EC50
Quick list: pEC50 per entry.
Remember the convention: pEC50 equals -log10 of concentration in molar.

Example results:
CCc1ccc(-c2ccc(-n3c(=O)[nH]c(=O)n(C)c3=O)cc2C)cc1 [Example 5] :: 5.14
Cc1ccc(-c2ccc(-n3c(=O)[nH]c(=O)n(-c4ccccc4)c3=O)cc2C)o1 [Example 4] :: 5.17
Cc1cc(-n2c(=O)[nH]c(=O)n(-c3ccccc3)c2=O)ccc1N1CCCCC1 [Example 2] :: 5.98
Cc1cc(-n2c(=O)[nH]c(=O)n(-c3ccccc3)c2=O)ccc1-n1cccn1 [Example 8] :: 5.25
Cc1cc(-n2c(=O)[nH]c(=O)n(-c3ccccc3)c2=O)ccc1-c1ccccc1 [Example 1] :: 6.74

Now look at this entry.
Need pEC50 of Cc1cc(-n2c(=O)[nH]c(=O)n(-c3ccccc3)c2=O)ccc1-n1cccc1 [Example 6] , thanks.
6.62

----------
- studyTarget: TrkB (Homo sapiens, UniProt Q16620)
- Sequence (Q16620 32-822): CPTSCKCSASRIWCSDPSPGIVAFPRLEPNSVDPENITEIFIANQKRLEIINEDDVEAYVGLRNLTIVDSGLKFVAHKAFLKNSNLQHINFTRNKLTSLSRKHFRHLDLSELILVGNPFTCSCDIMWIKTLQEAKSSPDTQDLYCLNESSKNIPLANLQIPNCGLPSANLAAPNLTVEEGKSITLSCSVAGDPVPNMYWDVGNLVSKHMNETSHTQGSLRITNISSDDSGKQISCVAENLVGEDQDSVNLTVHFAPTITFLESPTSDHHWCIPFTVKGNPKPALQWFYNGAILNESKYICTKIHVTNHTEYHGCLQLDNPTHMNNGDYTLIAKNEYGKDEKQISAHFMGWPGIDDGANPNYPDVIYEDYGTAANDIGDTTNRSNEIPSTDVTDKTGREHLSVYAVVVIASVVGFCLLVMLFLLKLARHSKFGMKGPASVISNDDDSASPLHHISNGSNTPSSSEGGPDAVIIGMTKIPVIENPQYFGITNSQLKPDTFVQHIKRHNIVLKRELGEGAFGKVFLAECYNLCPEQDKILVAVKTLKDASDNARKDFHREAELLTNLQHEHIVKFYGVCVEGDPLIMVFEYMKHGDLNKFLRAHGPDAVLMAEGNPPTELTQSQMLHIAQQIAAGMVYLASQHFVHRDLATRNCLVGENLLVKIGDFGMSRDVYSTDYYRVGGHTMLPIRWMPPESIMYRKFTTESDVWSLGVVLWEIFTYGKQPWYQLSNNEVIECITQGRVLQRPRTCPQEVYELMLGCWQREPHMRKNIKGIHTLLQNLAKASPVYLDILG
- testDescription: cell-based Enzyme Fragment Complementation (EFC) assay, U2OS cells over-expressing TrkB
- measurementConditions: compound pre-mixed with ligand (NGF), final ligand concentration 10 ng/mL, 3 hours at room temperature, read-out: TrkB potency expressed as EC50
- Description: A high throughput cell-based screen has been used to identify positive modulators of TrkA and TrkB. The screen involves the use of cell-based assay overexpressing TrkA or TrkB. […] The assay uses Enzyme Fragment Complementation (EFC) technique, which is a proximity-based assay. […] The activation of the receptor is quantified by measuring the amount of active beta-galactosidase by its conversion of a non-luminescent substrate into a luminescent product. […]
Quick list: pEC50 per entry.
Remember the convention: pEC50 equals -log10 of concentration in molar.

Example results:
Cc1cc(-n2c(=O)[nH]c(=O)n(-c3ccccc3)c2=O)ccc1-n1cccn1 [Example 8] :: 5.21
Cc1cc(-n2c(=O)[nH]c(=O)n(-c3ccccc3)c2=O)ccc1N1CCCCC1 [Example 2] :: 5.90
Cc1cc(-n2c(=O)[nH]c(=O)n(-c3ccccc3)c2=O)ccc1-c1ccccc1 [Example 1] :: 7.05
Cc1cc(-n2c(=O)[nH]c(=O)n(C)c2=O)ccc1-c1ccccc1 [Example 7] :: 4.69
Cc1cc(-n2c(=O)[nH]c(=O)n(-c3ccccc3)c2=O)ccc1C(C)C [Example 3] :: 5.10
Cc1cc(-n2c(=O)[nH]c(=O)n(-c3ccccc3)c2=O)ccc1-n1cccc1 [Example 6] :: 6.60

Need pEC50 of Cc1cccc(-n2c(=O)[nH]c(=O)n(-c3ccc(-n4cccc4)c(C)c3)c2=O)c1 [Example 11] , thanks.
7.15

For CCc1ccc(-c2ccc(-n3c(=O)[nH]c(=O)n(C)c3=O)cc2C)cc1 [Example 5] then?
5.52

For Cc1ccc(-c2ccc(-n3c(=O)[nH]c(=O)n(-c4ccccc4)c3=O)cc2C)o1 [Example 4] then?
5.68

----------
- studyTarget: UniProt P04629
- testDescription: cell-based Enzyme Fragment Complementation (EFC) assay, U2OS cells over-expressing TrkA
- measurementConditions: compound pre-mixed with ligand (NGF), final ligand concentration 10 ng/mL, 3 hours at room temperature, read-out: TrkA potency expressed as EC50
Quick list: pEC50 per entry.
Remember the convention: pEC50 equals -log10 of concentration in molar.

Example results:
Cc1cc(-n2c(=O)[nH]c(=O)n(C)c2=O)ccc1-c1ccccc1 :: 5.17
Cc1cccc(-n2c(=O)[nH]c(=O)n(-c3ccc(-n4cccc4)c(C)c3)c2=O)c1 :: 7.00

Now look at this entry.
Need pEC50 of Cc1cc(-n2c(=O)[nH]c(=O)n(-c3ccccc3)c2=O)ccc1C(C)C , thanks.
5.15
